Assay: Tmax in rat at 5 mg/kg, po
Assay type: ADME, organism-based
Design: dose 5 mg/kg, route oral
Details: in vivo
ASSAY READOUT: Tmax

For the compound `COc1ccc(CNC(=O)c2cc(-c3cncc(C)c3)ncc2-c2nccs2)nc1OC` , give its measured Tmax value.
18 min

* * *

Target: Orexin receptor type 2 (Homo sapiens)
Sequence (O43614 whole entry): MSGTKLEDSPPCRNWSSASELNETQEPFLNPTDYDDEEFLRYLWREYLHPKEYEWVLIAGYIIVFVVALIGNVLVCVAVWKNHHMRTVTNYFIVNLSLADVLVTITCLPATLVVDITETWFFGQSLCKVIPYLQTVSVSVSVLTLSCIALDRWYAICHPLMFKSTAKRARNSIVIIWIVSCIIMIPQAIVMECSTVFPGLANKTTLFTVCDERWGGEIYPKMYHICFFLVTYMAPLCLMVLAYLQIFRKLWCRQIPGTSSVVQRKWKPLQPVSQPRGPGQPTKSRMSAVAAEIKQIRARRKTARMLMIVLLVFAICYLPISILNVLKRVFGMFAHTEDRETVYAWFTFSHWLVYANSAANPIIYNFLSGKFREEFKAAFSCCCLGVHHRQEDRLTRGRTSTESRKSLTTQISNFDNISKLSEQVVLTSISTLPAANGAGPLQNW
Experiment: Antagonist activity at human OX2R expressed in CHO cells assessed as inhibition of Ala-6,12-orexinA-induced effect after 5 mins by FLIPR assay
ASSAY READOUT: pIC50
Scale explanation: pIC50 corresponds to minus log10 of a concentration expressed in moles per litre.

SMILES STRING: COc1ccc(CNC(=O)c2cc(-c3cncc(C)c3)cnc2-c2ccccc2)nc1OC
pIC50: 7.89

Answer with the recorded pIC50 of `COc1ccc(CNC(=O)c2cc(-c3cncc(C)c3)ncc2N2CCOCC2)nc1OC` only.
5.46

Give a short answer stating reported pIC50 for `COc1ccc(CNC(=O)c2cc(-c3cncc(C)c3)nc3onc(-c4ccccc4)c23)nc1OC` .
6.38

Please look at this compound and report its pIC50: `COc1ccc(CNC(=O)c2cc(-c3cncc(C)c3)ncc2-c2cnccn2)nc1OC`
6.96

Read the entry `COc1ccc(CNC(=O)c2cc(-c3cncc(C)c3)ncc2-c2cccc(F)c2)nc1OC` and write its reported pIC50.
7.80

Given `COc1ccc(CNC(=O)c2cc(-c3cncc(C)c3)ncc2N2CCCC2)nc1OC` , respond with its pIC50.
7.43

Name the recorded pIC50 of the compound listed here: `COc1ccc(CNC(=O)c2sc(-c3cncc(C)c3)nc2-c2cccc(F)c2)nc1OC`
5.97

In one line, give reported pIC50 of the entry `COc1ccc(CNC(=O)c2cc(-c3cncc(C)c3)ncc2-c2ccccc2F)nc1OC` .
7.60

Quick one: give measured pIC50 for `COc1ccc(CNC(=O)c2cc(-c3cncc(C)c3)ncc2-c2cncc(F)c2)nc1OC`
7.24
